// data source = ChEMBL document CHEMBL1201862

- Assayed System: UniProt:P43351
- Sequence (P43351 whole entry): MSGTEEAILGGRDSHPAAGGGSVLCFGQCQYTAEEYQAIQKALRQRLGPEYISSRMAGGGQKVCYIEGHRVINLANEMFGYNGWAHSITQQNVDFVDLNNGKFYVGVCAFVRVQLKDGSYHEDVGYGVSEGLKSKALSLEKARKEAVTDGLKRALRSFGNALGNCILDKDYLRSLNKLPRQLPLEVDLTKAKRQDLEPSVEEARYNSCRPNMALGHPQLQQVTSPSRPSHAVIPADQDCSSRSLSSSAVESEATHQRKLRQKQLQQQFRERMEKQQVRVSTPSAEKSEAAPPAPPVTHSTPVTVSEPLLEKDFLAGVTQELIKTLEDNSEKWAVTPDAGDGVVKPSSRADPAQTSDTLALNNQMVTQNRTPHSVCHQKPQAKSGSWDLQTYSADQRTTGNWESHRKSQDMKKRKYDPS
- Format: functional, biochemical
Active and inactive are the calls of the source.
Measured AC50 by item

N[C@@H](CO)c1cn([C@@H](Cc2cc3ccccc3[nH]2)C(=O)N2CCNCC2)nn1 : 3.52 µM (active)
N=C(N)Nc1ccc(/C=C2\C=Cc3ccccc32)cc1 : 13.2 µM (active)
COc1ccc2sc3cccc(NCCN(C)C)c3c(=O)c2c1 : 0.683 µM (active)
Cc1ccc2nc(NC(=N)N)nc(C)c2c1 : 12.6 µM (active)

Q: What value of AC50 has been reported for the following molecule? `CCN(CC)Cc1cc2[nH]c3c4ccc(Cl)cc4ncc3c2cc1OC`
A: 3.1 µM (active)
